Entries annotated with measured composite z-score
- testedOn: Torsin-1A (Homo sapiens)
- testDescription: torsin A binders from cell lysate, primary screen, small-molecule microarray, wild-type, 635/667 nm (AID 1149)
- testParameters: COS7 hTOR1A-WT lysate, 635 nm fluorescence, higher = more signal
Give the figure by itself; no unit, no explanation.

Please review the entries below; each comes with its answer.
Prompt: API: value(readout= composite z-score, system= Torsin-1A (Homo sapiens), query= CC1(C)OB(/C=C\CC(OC(=O)c2ccncc2)c2ccccc2)OC1(C)C (configuration not stated) )
Response: 0.432

Prompt: Another: `CC(C)(C)OC(=O)CC[C@]1(C(N)=O)N=C(c2ccc(OCCCO)cc2)O[C@H]1c1ccccc1N=[N+]=[N-]`
Response: 0.448

Prompt: Another: `CC(C)[Si]1(C(C)C)OCc2cc(-c3ccc(-c4ccc(Cl)c(Cl)c4)o3)nc(-c3ccc(Oc4ccccc4)cc3)c21`
Response: -1.33

Continuing:
Prompt: API: value(readout= composite z-score, system= Torsin-1A (Homo sapiens), query= `COc1ccc([Si](C)(C)[C@H]2[C@H](CC(=O)N3CCC[C@H]3CO)O[C@@]3(C(=O)N(C)c4c(Br)cc(C)cc43)[C@@H]2C)cc1` )
Response: 2.05

Prompt: Another: `Cc1ccc(S[C@]2(C(=O)NC3CC3)CC(=O)N(C3Cc4ccccc4C3)[C@@H]2c2ccc(CO)cc2I)cc1`
Response: 0.909

Prompt: Another: `COCCOC(=O)N1C(=O)[C@@]2(c3cc(C#CCNC(N)=O)ccc31)[C@H](C(N)=O)[C@H]1C(=O)O[C@H](c3ccccc3)[C@H](c3ccccc3)N1[C@@H]2c1ccc(O)cc1`
Response: 0.572

Prompt: Another: `COc1ccc([Si](C)(C)[C@@H]2[C@@H](CC(=O)N(CCO)Cc3ccccc3)O[C@]3(C(=O)N(Cc4cccc(I)c4)c4ccccc43)[C@H]2C)cc1`
Response: 0.48

====

Entries annotated with measured z-score
- testDescription: CREB reporter modulators under forskolin, primary screen, cell-based, PC12, CRE-LacZ reporter, forskolin-stimulated (AID 1146);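 also: PC12 cells with 6xCRE LacZ reporter stimulated by forskolin 10 µM; beta-galactosidase reporter signal reflecting CREB driven transcription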
- testParameters: luminescence, 4.5 h, higher = more signal, called active from +8 up or from −8 down
Give the figure by itself; no unit, no explanation.

Prompt: Given `COc1ccc([Si](C)(C)[C@H]2[C@H](CC(=O)N(CCO)Cc3ccccc3)O[C@@]3(C(=O)N(c4ccccc4)c4ccccc43)[C@@H]2C)cc1` , state its recorded z-score.
Response: -3.89

Prompt: Another: `O=C1O[C@H](c2ccccc2)[C@H](c2ccccc2)N2[C@H]1[C@@H](C(=O)O)[C@]1(C(=O)Nc3ccccc31)[C@H]2c1ccc(OCCO)cc1`
Response: 0.727

Prompt: Another: CCCCCN1CC=CC23O[C@@H]4/C=C\CCCOC(=O)C4[C@H]2C(=O)N(CCCCCO)[C@@H]3C1=O (stereo partly specified)
Response: 0.0118

Prompt: Another: `COC(=O)[C@@]1(Cc2ccccc2)[C@H]2c3cc(C(=O)N(C)C)n(Cc4ccc(Cl)c(C(F)(F)F)c4)c3C[C@H]2CN1C(=O)c1ccccc1`
Response: -0.244

Prompt: Another: `C=CCNC(=O)[C@H]1[C@@H]2C(=O)O[C@@H](c3ccccc3)[C@@H](c3ccccc3)N2[C@@H](c2ccc(O)cc2)[C@]12C(=O)N(C(=O)OCCOC)c1ccc(C#Cc3ccc(OC)cc3)cc12`
Response: 1.43

Please examine the following record next.
Prompt: Given `COc1ccc(-c2cc3c(c(CCc4ccccc4)n2)[Si](C(C)C)(C(C)C)O[C@H]3c2ccccc2)cn1` , state its recorded z-score.
Response: -0.0122
